system: SH-SY5Y; assay: Neuroprotective activity against H2O2-induced neuronal cell death in human SH-SY5Y cells assessed as cell viability at 50 uM pretreated for 12 hrs followed by H2O2 addition measured after 3 hrs by MTT assay relative to control; format: functional; conditions: read-out: Activity
Quantity name: viability at 50 µM (%)
Just the number in %, nothing appended.

Q. Look up viability at 50 µM for this compound: CC1(C)CC[C@@]2(CO)C(=C3C=C[C@@H]4[C@@]5(C)CCC(=O)[C@@](C)(CO)[C@@H]5CC[C@@]4(C)[C@]3(C)C[C@H]2O)C1
A. 74.1

Q. Param item: CC(=O)O[C@H]1[C@H](O[C@H]2[C@@H](O)[C@@H](C)O[C@@H](O[C@H]3CC[C@@]4(C)[C@@H](CC[C@]5(C)[C@@H]4C=CC4=C6CC(C)(C)CC[C@]6(CO)[C@H](O)C[C@]45C)[C@]3(C)CO)[C@@H]2O)O[C@H](CO)[C@@H](O)[C@@H]1O
A. 7.28

Q. // next record CC1(C)CC[C@@]2(CO)C(=C3C=C[C@@H]4[C@@]5(C)CC[C@H](O)[C@@](C)(CO)[C@@H]5CC[C@@]4(C)[C@]3(C)C[C@@H]2O)C1
A. 79.9

* * *

Record form. Attribute: viability at 50 µM. Fill in for each entry.
test system: SH-SY5Y; test: Neuroprotective activity against H2O2-induced neuronal cell death in human SH-SY5Y cells assessed as cell viability at 50 uM pretreated for 12 hrs followed by H2O2 addition measured after 3 hrs by MTT assay relative to control; format: functional; settings: read-out: Activity

Q. # lookup: viability at 50 µM of CO[C@@H]1C=C2[C@@H]3CC(C)(C)CC[C@]3(CO)[C@H](O)C[C@@]2(C)[C@]2(C)CC[C@H]3[C@](C)(CO)[C@@H](O[C@@H]4O[C@H](C)[C@H](O)[C@H](O[C@@H]5O[C@H](COC(C)=O)[C@@H](O)[C@H](O)[C@H]5O)[C@H]4O)CC[C@]3(C)[C@@H]12
A. 7.12%

Q. Then CO[C@H]1C=C2[C@H]3CC(C)(C)CC[C@@]3(CO)[C@H](O)C[C@]2(C)[C@@]2(C)CC[C@@H]3C(C)(C)[C@H](O[C@@H]4O[C@H](CO[C@H]5O[C@@H](CO)[C@H](O)[C@@H](O)[C@@H]5O)[C@@H](O[C@@H]5O[C@@H](C)[C@H](O)[C@@H](O)[C@H]5O)[C@H](O)[C@H]4O)CC[C@@]3(C)[C@H]12 ?
A. 50%

* * *

Would you kindly list viability at 50 µM for each of these molecules?
system: SH-SY5Y; assay: Neuroprotective activity against H2O2-induced neuronal cell death in human SH-SY5Y cells assessed as cell viability at 50 uM pretreated for 12 hrs followed by H2O2 addition measured after 3 hrs by MTT assay relative to control; format: functional; conditions: read-out: Activity

Q. For the molecule shown here, CO[C@@H]1C=C2[C@@H]3CC(C)(C)CC[C@]3(CO)[C@@H](O)C[C@@]2(C)[C@]2(C)CC[C@H]3[C@](C)(CO)[C@@H](O[C@@H]4O[C@H](C)[C@H](O)[C@H](O[C@@H]5O[C@H](CO)[C@@H](O)[C@H](O)[C@H]5O)[C@H]4O)CC[C@]3(C)[C@@H]12 , give the reported viability at 50 µM.
A. 8.25%

Q. Lookup C[C@H]1O[C@@H](O[C@H]2CC[C@@]3(C)[C@@H](CC[C@]4(C)[C@@H]3C=CC3=C5CC(C)(C)CC[C@]5(CO)[C@H](O)C[C@]34C)[C@]2(C)CO)[C@H](O)[C@@H](O[C@@H]2O[C@H](CO)[C@@H](O)[C@H](O)[C@H]2O)[C@H]1O
A. 59.5%

Q. And the next one, CO[C@@H]1C=C2[C@@H]3CC(C)(C)CC[C@]3(CO)[C@@H](O)C[C@@]2(C)[C@]2(C)CC[C@H]3C(C)(C)[C@@H](O[C@@H]4O[C@H](C)[C@H](O)[C@H](O[C@@H]5O[C@H](CO)[C@@H](O)[C@H](O)[C@H]5O)[C@H]4O)CC[C@]3(C)[C@@H]12 ?
A. 7.15%
